Below, each entry is listed alongside its reported pEC50.
measured.target: JAK3 (catalytic domain, His-tag) (Homo sapiens, UniProt P52333)
Construct: All four purified enzymes contain only the catalytic domain; His (N); purchased Carna Biosciences, Inc; host or cells: baculovirus expression system
Sequence (P52333 822-1111 limits assumed): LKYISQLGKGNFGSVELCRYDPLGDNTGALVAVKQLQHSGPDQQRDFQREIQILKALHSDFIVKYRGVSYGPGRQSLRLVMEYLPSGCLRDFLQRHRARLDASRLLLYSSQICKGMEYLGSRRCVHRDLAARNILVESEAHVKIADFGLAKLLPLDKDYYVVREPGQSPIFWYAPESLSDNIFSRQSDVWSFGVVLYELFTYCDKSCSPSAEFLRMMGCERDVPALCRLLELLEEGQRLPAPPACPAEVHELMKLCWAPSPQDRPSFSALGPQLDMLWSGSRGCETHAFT
measurement.notes: JAK kinase assay (HTRF, phosphorylation of TK substrate-biotin), JAK3
Type: biochemical
run.conditions: ATP at Km (2 μM); read-out: JAK3 kinase inhibitory activity (EC50 indicator)
pEC50: −log10 of the molar value.

Known results for molecules:
# lookup: pEC50 of N#CCc1ccc(C(=O)N2CCN(c3ncnc4[nH]ccc34)CC23CC3)cc1
6.30 to 7.00

# lookup: pEC50 of O=C(c1ccc2cc[nH]c2c1)N1CCN(c2ncnc3[nH]ccc23)CC12CC2
< 6.30

# lookup: pEC50 of O=C(Cc1ccccc1)N1CCN(c2ncnc3[nH]ccc23)CC12CC2
> 7.00

# lookup: pEC50 of CC(=O)N1CCCC1C(=O)N1CCN(c2ncnc3[nH]ccc23)CC12CC2 (centres unmarked)
< 6.30

Now take the following molecule into account.
# lookup: pEC50 of N#CCCC(=O)N1CCN(c2ncnc3[nH]ccc23)CC12CC2
> 7.00

---

measured.target: TYK2 (aa 871-1187, catalytic domain, GST-tag) (Homo sapiens, UniProt P29597)
Construct: JAK1 (aa 850-1154) and TYK2 (aa 871-1187) are expressed with an N-terminally fused GST-tag; GST (N); purchased Carna Biosciences, Inc; host or cells: baculovirus expression system
Sequence (P29597 871-1187): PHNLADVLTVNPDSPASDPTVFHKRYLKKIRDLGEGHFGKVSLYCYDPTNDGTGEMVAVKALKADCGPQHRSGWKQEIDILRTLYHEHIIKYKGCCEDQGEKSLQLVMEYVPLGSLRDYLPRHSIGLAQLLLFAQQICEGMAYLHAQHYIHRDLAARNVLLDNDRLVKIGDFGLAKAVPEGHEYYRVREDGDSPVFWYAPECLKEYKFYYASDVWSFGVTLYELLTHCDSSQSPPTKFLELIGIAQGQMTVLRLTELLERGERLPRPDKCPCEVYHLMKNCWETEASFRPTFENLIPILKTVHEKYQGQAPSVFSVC
measurement.notes: JAK kinase assay (HTRF, phosphorylation of TK substrate-biotin), TYK2
Type: biochemical
run.conditions: HTRF assay, ATP at Km (13 μM); read-out: TYK2 kinase inhibitory activity (EC50 indicator)
readout.type: EC50

# lookup: EC50 of CCc1sc(C(=O)N2CCN(c3ncnc4[nH]ccc34)CC23CC3)cc1Br [Example 209]
< 0.1 µM

# lookup: EC50 of O=C(Cc1ccc(C(F)(F)F)cc1)N1[C@@H]2CC[C@@H]1CN(c1ncnc3[nH]ccc13)C2 [Example 349]
> 0.5 µM

# lookup: EC50 of N#CCCCC(=O)N1CCN(c2ncnc3[nH]ccc23)CC12CC2 [Example 298]
0.1 to 0.5 µM

# lookup: EC50 of O=C(c1csc2ccccc12)N1CCN(c2ncnc3[nH]ccc23)CC12CC2 [Example 214]
< 0.1 µM

# lookup: EC50 of NS(=O)(=O)c1c[nH]c(C(=O)N2CCN(c3ncnc4[nH]ccc34)CC23CC3)c1 [Example 402]
< 0.1 µM

New cases:
# lookup: EC50 of Cc1ccsc1C(=O)N1[C@@H]2CC[C@@H]1CN(c1ncnc3[nH]ccc13)C2 [Example 243]
> 0.5 µM

# lookup: EC50 of O=C(c1ccccc1)N1C[C@@H]2C[C@H]1CN2c1ncnc2[nH]ccc12 (racemic) [Example 253]
> 0.5 µM

# lookup: EC50 of N#CCc1cccc(CC(=O)N2CCN(c3ncnc4[nH]cc(Cl)c34)CC23CC3)c1 [Example 318]
> 0.5 µM

# lookup: EC50 of CC(=O)Nc1ccc(C(=O)N2[C@@H]3CC[C@@H]2CN(c2ncnc4[nH]ccc24)C3)cc1 [Example 354]
> 0.5 µM

# lookup: EC50 of COc1cc(C(=O)N2[C@@H]3CC[C@H]2CN(c2ncnc4[nH]ccc24)C3)ccc1S(N)(=O)=O [Example 390]
< 0.1 µM

# lookup: EC50 of O=C(c1cnc2ccccc2n1)N1CCN(c2ncnc3[nH]cc(Cl)c23)CC12CC2 [Example 317]
> 0.5 µM

---

Below, each entry is listed alongside its reported pEC50.
measured.target: JAK2 (catalytic domain, His-tag) (Homo sapiens)
Construct: All four purified enzymes contain only the catalytic domain; His (N); purchased Carna Biosciences, Inc; host or cells: baculovirus expression system
Sequence (O60674 849-1124 limits assumed): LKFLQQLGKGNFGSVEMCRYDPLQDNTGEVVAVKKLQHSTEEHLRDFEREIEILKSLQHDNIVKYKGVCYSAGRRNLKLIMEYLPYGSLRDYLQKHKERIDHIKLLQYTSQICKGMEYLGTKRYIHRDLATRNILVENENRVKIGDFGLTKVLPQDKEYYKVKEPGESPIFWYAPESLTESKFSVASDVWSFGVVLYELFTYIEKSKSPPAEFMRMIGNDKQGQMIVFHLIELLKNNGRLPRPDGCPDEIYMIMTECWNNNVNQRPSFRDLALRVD
measurement.notes: JAK kinase assay (HTRF, phosphorylation of TK substrate-biotin), JAK2
Type: biochemical
run.conditions: HTRF assay, ATP at Km (4 μM); read-out: JAK2 kinase inhibitory activity (EC50 indicator)
pEC50: −log10 of the molar value.

Known results for compounds:
Report pEC50 for Cc1c(C(=O)N2CCN(c3ncnc4[nH]ccc34)CC23CC3)sc2ccccc12 [Example 296] tested on JAK2 (catalytic domain, His-tag) (Homo sapiens).
> 7.00

Report pEC50 for N#CCOc1ccc(C(=O)N2[C@@H]3CC[C@@H]2CN(c2ncnc4[nH]ccc24)C3)cc1 [Example 342] tested on JAK2 (catalytic domain, His-tag) (Homo sapiens).
> 7.00

Report pEC50 for NS(=O)(=O)c1ccc(C(=O)N2[C@@H]3CC[C@@H]2CN(c2ncnc4[nH]ccc24)C3)cc1 [Example 353] tested on JAK2 (catalytic domain, His-tag) (Homo sapiens).
> 7.00

Report pEC50 for Cc1ccc(S(N)(=O)=O)cc1C(=O)N1CCN(c2ncnc3[nH]ccc23)CC12CC2 [Example 388] tested on JAK2 (catalytic domain, His-tag) (Homo sapiens).
> 7.00

Report pEC50 for COC(=O)c1cc2c(N3CCN(C(=O)CCC#N)C4(CC4)C3)ncnc2[nH]1 [Example 340] tested on JAK2 (catalytic domain, His-tag) (Homo sapiens).
< 6.30

New cases:
Report pEC50 for Cc1c(C(=O)N2[C@H]3CC[C@H]2CN(c2ncnc4[nH]ccc24)C3)sc2ccccc12 [Example 245] tested on JAK2 (catalytic domain, His-tag) (Homo sapiens).
> 7.00

Report pEC50 for O=C(c1ccc(OC(F)(F)F)cc1)N1CCN(c2ccnc3[nH]ccc23)CC12CC2 [Example 238] tested on JAK2 (catalytic domain, His-tag) (Homo sapiens).
6.30 to 7.00

Report pEC50 for N#CCC(=O)N1CCN(c2ccnc3[nH]ccc23)CC12CC2 [Example 220] tested on JAK2 (catalytic domain, His-tag) (Homo sapiens).
6.30 to 7.00

Report pEC50 for Cc1ccc2sc(C(=O)N3CCN(c4ccnc5[nH]ccc45)CC34CC4)cc2c1 [Example 234] tested on JAK2 (catalytic domain, His-tag) (Homo sapiens).
6.30 to 7.00

Report pEC50 for O=C(c1ccccn1)N1CCN(c2ccnc3[nH]ccc23)CC12CC2 [Example 222] tested on JAK2 (catalytic domain, His-tag) (Homo sapiens).
6.30 to 7.00

---

Below, each entry is listed alongside its reported pEC50.
measured.target: JAK3 (catalytic domain, His-tag) (Homo sapiens)
Construct: All four purified enzymes contain only the catalytic domain; His (N); purchased Carna Biosciences, Inc; host or cells: baculovirus expression system
measurement.notes: JAK kinase assay (HTRF, phosphorylation of TK substrate-biotin), JAK3
Type: biochemical
run.conditions: HTRF assay, ATP at Km (2 μM); read-out: JAK3 kinase inhibitory activity (EC50 indicator)
pEC50: −log10 of the molar value.

Known results for molecules:
# lookup: pEC50 of Cc1c(C(=O)N2[C@H]3CC[C@H]2CN(c2ncnc4[nH]ccc24)C3)sc2ccccc12
> 7.00

# lookup: pEC50 of CS(=O)(=O)c1ccc(C(=O)N2[C@@H]3CC[C@@H]2CN(c2ncnc4[nH]ccc24)C3)cc1
6.30 to 7.00

New cases:
# lookup: pEC50 of COc1cnc2[nH]ccc2c1N1CCN(C(=O)c2ccc(C#N)c(F)c2)C2(CC2)C1
6.30 to 7.00

# lookup: pEC50 of Cc1ccc2sc(C(=O)N3CCN(c4ncnc5[nH]ccc45)CC34CC4)cc2c1
6.30 to 7.00

# lookup: pEC50 of O=C(c1cccs1)N1CCN(c2ncnc3[nH]ccc23)CC12CC2
> 7.00

# lookup: pEC50 of O=C(c1ccc2c(c1)CCCC2)N1CCN(c2ncnc3[nH]ccc23)CC12CC2
< 6.30

# lookup: pEC50 of CS(=O)(=O)c1cccc(C(=O)N2CCN(c3ncnc4[nH]ccc34)CC23CC3)c1
6.30 to 7.00

# lookup: pEC50 of Cc1cnc(C(=O)N2CCN(c3ncnc4[nH]ccc34)CC23CC3)cn1
> 7.00

# lookup: pEC50 of COc1cnc2[nH]ccc2c1N1CCN(C(=O)c2cc3ccccc3s2)C2(CC2)C1
< 6.30

# lookup: pEC50 of N#CCCC(=O)N1CCN(c2nc(N)nc3[nH]ccc23)CC12CC2
> 7.00

Reference source for all entries: patent US9346809B2
